# study_system: SHP2-C SH2
# experimental_details: SH2 binding enrichment of the phosphorylated peptide, bacterial display (enrichment ratio); higher = better substrate or ligand; peptides without Tyr show the background
Binary call on SH2 binding enrichment: T from 0.8 upward, F beneath that.

{"seq_text": "KNKNRYKNVLP [PTPN11_Y279_I282V]", "label_value": "T"}
{"seq_text": "RQRTAYFSLDT [CDH1_Y68]", "label_value": "T"}
{"seq_text": "TEIGQYGNGLK [MORC2_Y100_Q96E]", "label_value": "F"}
{"seq_text": "HLVLNYGVCFC [JAK2_Y613_V617F]", "label_value": "T"}
{"seq_text": "KGSEGYLAATF [NF1_Y2503_YF]", "label_value": "T"}
{"seq_text": "DFTSRYLSASD [PKHD1_Y828_N830S]", "label_value": "F"}
{"seq_text": "DPKFHYDNTAG [KDR_Y1214]", "label_value": "F"}
{"seq_text": "SPYAVYRFFTF [RPGRIP1_Y826]", "label_value": "F"}
{"seq_text": "IENKLYGMSDS [RET_Y1062_P1067S]", "label_value": "F"}
{"seq_text": "NLNGKYYKPRA [ANGPTL3_Y417_N418Y]", "label_value": "T"}
{"seq_text": "DKATEYSQFMR [MAX_Y70_I71S_YF]", "label_value": "F"}
{"seq_text": "WNNLDYMDSRR [GAA_Y407_D404N]", "label_value": "T"}

----------
Reported phosphorylation enrichment values are given for each entry in this list.
# study_system: EPHB2 (UniProt P29323)
# Sequence (P29323 whole entry, looked up): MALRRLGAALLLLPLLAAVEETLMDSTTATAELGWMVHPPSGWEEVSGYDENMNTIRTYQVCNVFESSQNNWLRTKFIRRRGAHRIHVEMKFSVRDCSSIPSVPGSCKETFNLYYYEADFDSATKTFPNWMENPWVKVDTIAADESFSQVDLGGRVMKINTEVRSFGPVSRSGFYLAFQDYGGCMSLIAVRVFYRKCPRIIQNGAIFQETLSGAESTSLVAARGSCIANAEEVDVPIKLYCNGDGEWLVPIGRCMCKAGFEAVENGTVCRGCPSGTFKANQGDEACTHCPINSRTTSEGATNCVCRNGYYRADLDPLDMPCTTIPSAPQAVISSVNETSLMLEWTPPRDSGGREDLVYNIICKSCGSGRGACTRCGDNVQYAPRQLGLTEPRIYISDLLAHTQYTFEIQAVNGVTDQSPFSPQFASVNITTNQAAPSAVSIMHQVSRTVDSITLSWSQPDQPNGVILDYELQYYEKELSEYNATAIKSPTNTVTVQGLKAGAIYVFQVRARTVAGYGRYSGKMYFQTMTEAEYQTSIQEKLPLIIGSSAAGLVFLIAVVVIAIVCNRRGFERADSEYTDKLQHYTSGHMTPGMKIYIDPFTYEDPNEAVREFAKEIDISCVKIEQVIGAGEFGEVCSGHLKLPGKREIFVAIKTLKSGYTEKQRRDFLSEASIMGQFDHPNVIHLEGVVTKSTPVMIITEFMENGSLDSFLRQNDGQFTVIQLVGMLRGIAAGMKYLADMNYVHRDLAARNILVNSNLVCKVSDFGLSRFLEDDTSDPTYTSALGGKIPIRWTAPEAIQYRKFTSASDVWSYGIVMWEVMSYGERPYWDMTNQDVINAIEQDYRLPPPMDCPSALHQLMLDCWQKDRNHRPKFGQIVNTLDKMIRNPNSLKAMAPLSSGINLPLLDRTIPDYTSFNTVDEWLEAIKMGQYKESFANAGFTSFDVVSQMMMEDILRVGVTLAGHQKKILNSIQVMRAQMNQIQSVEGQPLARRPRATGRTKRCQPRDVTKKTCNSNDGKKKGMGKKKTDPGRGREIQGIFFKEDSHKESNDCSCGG
# experimental_details: phosphorylation enrichment, bacterial display (enrichment ratio); higher = better substrate or ligand; peptides without Tyr show the background
experimental_endpoint: phosphorylation enrichment

{"seq_text": "NLNGKYYKPRA [ANGPTL3_Y417_N418Y]", "observed_measurement": 0.324}
{"seq_text": "CTSIHYNYMCN [TP53_Y234_T231S]", "observed_measurement": 0.63}
{"seq_text": "ETLLYYGYRRS [POR_Y564_C566Y]", "observed_measurement": 1.06}
{"seq_text": "CTTIHYNFMCD [TP53_Y234_N239D_YF]", "observed_measurement": 0.499}
{"seq_text": "ELAINYQEQAS [SLC9A9_Y591]", "observed_measurement": 0.469}
{"seq_text": "WGLRSYFETSK [MAGED2_Y448_YF]", "observed_measurement": 0.594}
{"seq_text": "REVVNYVQKRS [RMI1_Y450_N455S]", "observed_measurement": 0.35}
{"seq_text": "AGARMYGVLPW [PLP1_Y207_D203G]", "observed_measurement": 0.724}
{"seq_text": "FEDTLYTVLHR [UNC13D_Y61_A59T_YF]", "observed_measurement": 4.95}
{"seq_text": "SYNNKYGMVAQ [APOB_Y276_K273N]", "observed_measurement": 0.474}
{"seq_text": "RLRKFHLGKFL [KLB_Y906_Y906H_YF]", "observed_measurement": 1.16}
{"seq_text": "WQQQSYLDSVI [CTNNB1_Y30_G34V]", "observed_measurement": 0.668}
{"seq_text": "LVRPPYSFSAL [FOXI1_Y126_YF]", "observed_measurement": 0.46}

----------
# study_system: SHP2-C SH2;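 further: peptide library displayed on the E. coli surface as eCPX fusions, selected cells deep-sequenced, score is each peptide's frequency after selection divided by its frequency in the input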
# experimental_details: SH2 binding enrichment of the phosphorylated peptide, bacterial display (enrichment ratio); higher = better substrate or ligand; peptides without Tyr show the background
experimental_endpoint: SH2 binding enrichment

{"seq_text": "TFVVLYDAELT [ERCC4_Y581_R576T_YF]", "observed_measurement": 1.73}
{"seq_text": "ADDSFYTARSA [ZAP70_Y493_YF]", "observed_measurement": 1.55}
{"seq_text": "TIMTNYNPNFC [ALK_Y1092_D1091N_YF]", "observed_measurement": 0.531}
{"seq_text": "GGYTCYCDGKK [PROS1_Y266]", "observed_measurement": 0.79}
{"seq_text": "FQEKSYIKGTS [LCTL_Y331_L326F]", "observed_measurement": 0.553}
{"seq_text": "LPHVIYCRLWR [SMAD2_Y128]", "observed_measurement": 0.723}
{"seq_text": "FPKVRYHWLVL [APTX_Y214_A212V_YF]", "observed_measurement": 0.999}
{"seq_text": "KHASTYREAAT [DEAF1_Y483]", "observed_measurement": 0.755}
{"seq_text": "RRKRAYVEIEY [MAK16_Y282_Q277R]", "observed_measurement": 0.938}
{"seq_text": "RAFRRYLLKQK [SCN2A_Y1919_YF]", "observed_measurement": 0.44}
{"seq_text": "DRFANYIEKVR [DES_Y122]", "observed_measurement": 0.743}
{"seq_text": "QYKGKYLAKHN [CASK_Y712_D710G]", "observed_measurement": 0.792}
{"seq_text": "IEDNEYTAREG [HCK_Y411]", "observed_measurement": 0.666}
{"seq_text": "SARFHYLMAEK [LDHB_Y173_R172H]", "observed_measurement": 0.601}
{"seq_text": "TQPSPYAVFLF [RPGRIP1_Y823_R827L_YF]", "observed_measurement": 0.82}
{"seq_text": "GMIQAYSSSQR [DES_Y5_S2I]", "observed_measurement": 0.712}
{"seq_text": "LRNIDYHRLDG [ATRX_Y2083_Y2084H]", "observed_measurement": 1.25}
{"seq_text": "HQEPVYSVAFS [TBL1X_Y509]", "observed_measurement": 0.856}
{"seq_text": "ELCSEYHKSRK [SPINK5_Y440_R441H]", "observed_measurement": 0.679}
{"seq_text": "RNVYYYSYLLK [PTEN_Y178_Y174N]", "observed_measurement": 2.1}
{"seq_text": "GLCSYYETSKM [MAGED2_Y449_R446C]", "observed_measurement": 0.72}
{"seq_text": "QNWELYSEGLG [CNKSR1_Y665_R662W]", "observed_measurement": 0.771}
{"seq_text": "SVVVPYAPPEV [TP53_Y220_E221A]", "observed_measurement": 0.602}
{"seq_text": "TYQYKYPEGSS [TGM4_Y440_E437Q]", "observed_measurement": 0.586}
{"seq_text": "CTTIHSNFMCN [TP53_Y234_Y234S_YF]", "observed_measurement": 0.914}
{"seq_text": "VATRWYRSLEL [CDKL5_Y177_P180L]", "observed_measurement": 0.551}
{"seq_text": "TDGIAYEFRVT", "observed_measurement": 0.575}
{"seq_text": "LSRDVYEEDSF [RET_Y900_YF]", "observed_measurement": 0.805}
{"seq_text": "PIPAAYNRYDQ [CDC73_Y290]", "observed_measurement": 0.559}
{"seq_text": "AFGEVYEGQES [ALK_Y1131_V1135E]", "observed_measurement": 0.677}
{"seq_text": "FGSSSSGGAGG [RPA2_Y14_Y14S_YF]", "observed_measurement": 0.622}
{"seq_text": "QISRDYGVLLE [PRDX3_Y172]", "observed_measurement": 0.683}
{"seq_text": "RESYKYLPSSL [CXXC1_Y218_F219L]", "observed_measurement": 0.791}
{"seq_text": "DDERGYRRVRS [GIGYF2_Y268]", "observed_measurement": 0.623}
{"seq_text": "GLDGRYLLRDS [SH2D1A_Y29_S28R]", "observed_measurement": 0.7}
{"seq_text": "SSWKLYPRMLR [HAO1_Y50_R46S]", "observed_measurement": 0.803}
{"seq_text": "PICEGYALPHA [ACTC1_Y171_Y168C]", "observed_measurement": 0.918}
{"seq_text": "HSFQCYGRNEA [ENTPD3_Y262]", "observed_measurement": 0.82}
{"seq_text": "VLNHAYENLTR [SYNE2_Y3255_D3253H]", "observed_measurement": 1.89}
{"seq_text": "KTKIGYSPLHQ [ANK1_Y735_L733I]", "observed_measurement": 0.827}
{"seq_text": "MYVKSYTIHYS [F5_Y2153]", "observed_measurement": 0.826}
{"seq_text": "FPLELYERVRM [PRKCG_Y312_YF]", "observed_measurement": 0.722}
{"seq_text": "SFCFRYRCAAQ [SUMF1_Y344_R349Q_YF]", "observed_measurement": 2.02}
{"seq_text": "EIRTQYEAMAS [GFAP_Y242]", "observed_measurement": 1.14}
{"seq_text": "IRTIDYRFTVC [IDS_Y497_W502C_YF]", "observed_measurement": 0.739}
{"seq_text": "EKFVPYYDLFM [IPO5_Y530]", "observed_measurement": 1.46}
{"seq_text": "FLAVGYHKPRI [IDS_Y225_H229R]", "observed_measurement": 1.6}
{"seq_text": "TNLVPYTRIHF [TUBA1A_Y262_P263T]", "observed_measurement": 40.4}
{"seq_text": "NLMPAYYKCIQ [CYP21A2_Y190]", "observed_measurement": 0.444}
{"seq_text": "TQTPPYVKKHP [LARP1B_Y457]", "observed_measurement": 0.821}
{"seq_text": "DPLLTYWFPPK [LMNA_Y481_R482W]", "observed_measurement": 0.797}
{"seq_text": "AASTDYFKRGD [PDHA1_Y242_YF]", "observed_measurement": 0.68}
{"seq_text": "ATFRGYDSDNP [MMUT_Y146_H143Y_YF]", "observed_measurement": 0.718}
{"seq_text": "RGVAHYILQTF [SLC39A4_Y359_T357A]", "observed_measurement": 1.71}
{"seq_text": "QRCFVYFFSFL [PTEN_Y176_R173C_YF]", "observed_measurement": 1.27}
{"seq_text": "FSQQVYRVNLS [FAT4_Y480]", "observed_measurement": 0.882}
{"seq_text": "YIATQYSLCPR [LBR_Y166_R169C]", "observed_measurement": 0.839}
